// values below are reported log10(EC50)
# System: MCF7 cells
# Measurement notes: In vitro cell proliferation assays (Examples 902 and 903), MCF7
# Format: cell-based
# Run parameters: Homo sapiens, MCF7, Table 1a, read-out: ER-alpha MCF7 HCS (EC50)
Recall that a logarithmic scale is used here: each number is log10 of EC50 in nM.

Compound	Target of assay	log10(EC50)
C[C@@H]1Cc2c([nH]c3ccccc23)[C@@H](c2c(F)cc(C(O)C3CN(CCCF)C3)cc2F)N1CC(F)F (some centres unmarked) [Compound 110]	MCF7 cells	-1.09
C[C@@H]1Cc2c([nH]c3ccccc23)[C@@H](c2ccc([C@H](O)C3CN(CCCF)C3)cc2F)N1CC(F)(F)CO [Compound 129]	MCF7 cells	-1.47
C[C@@H]1Cc2c([nH]c3ccccc23)[C@@H](c2c(F)cc(C(N)C3CN(CCCF)C3)cc2F)N1CC(F)(F)CO (some centres unmarked) [Compound 145]	MCF7 cells	-1.14
C[C@H]1Cc2c([nH]c3c(F)cccc23)[C@H](c2c(F)cc([C@H](O)C3CN(CCCF)C3)cc2F)N1CC(F)(F)CO (single isomer, unassigned) [Compound 131]	MCF7 cells	0.88
C[C@@H]1Cc2c([nH]c3ccccc23)[C@@H](c2c(F)cc(C(C#N)C3CN(CCCF)C3)cc2F)N1CC(F)(F)CO (some centres unmarked) [Compound 150]	MCF7 cells	-1.27

Continue with the next compound.
Entry under test: C[C@@H]1Cc2c([nH]c3ccccc23)[C@@H](c2c(F)cc([C@@H](O)C3CN(CCCF)C3)cc2F)N1CC(F)(F)CO (single isomer, unassigned) [Compound 135] . Its log10(EC50) was -1.41

====

# Target of assay: estrogen receptor alpha (ESR1) (Homo sapiens)
# Construct: endogenous in cells; host or cells: MCF7 breast cancer cells
# Sequence (P03372 whole entry): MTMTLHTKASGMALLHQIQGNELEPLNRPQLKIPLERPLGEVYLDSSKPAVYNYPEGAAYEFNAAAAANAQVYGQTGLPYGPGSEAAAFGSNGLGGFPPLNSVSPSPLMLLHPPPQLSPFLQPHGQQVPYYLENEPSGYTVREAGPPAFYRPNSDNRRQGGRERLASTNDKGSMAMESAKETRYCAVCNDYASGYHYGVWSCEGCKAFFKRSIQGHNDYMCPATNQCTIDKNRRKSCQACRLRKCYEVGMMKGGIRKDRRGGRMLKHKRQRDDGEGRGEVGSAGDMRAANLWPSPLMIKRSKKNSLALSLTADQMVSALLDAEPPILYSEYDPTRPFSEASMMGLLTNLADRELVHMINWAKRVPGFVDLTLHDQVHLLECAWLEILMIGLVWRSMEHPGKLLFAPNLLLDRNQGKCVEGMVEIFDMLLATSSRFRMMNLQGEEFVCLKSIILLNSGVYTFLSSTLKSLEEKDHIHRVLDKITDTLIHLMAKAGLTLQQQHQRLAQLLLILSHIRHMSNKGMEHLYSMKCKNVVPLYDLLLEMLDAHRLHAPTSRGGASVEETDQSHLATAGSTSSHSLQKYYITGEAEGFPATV
# Measurement notes: Breast Cancer Cell ERa High Content Fluorescence Imaging Degradation Assay (Example 901)
# Format: cell-based
# Run parameters: Table 1a; MCF7 breast cancer cells, 4 hours; plateau of the maximal effect; DMSO and Fulvestrant define 0% and 100% changes in ESR1
Property label: ER-alpha MCF7 HCS (S inf) (%)
// note: answer is a bare numeric in %

Reference set (5 entries):
Compound	Value
C[C@@H]1Cc2c([nH]c3ccccc23)[C@@H](c2c(F)cc(C(O)C3CN(CCCF)C3)cc2F)N1C[C@](C)(F)CO (stereo partly drawn) [Compound 108]	−96.34
C[C@@H]1Cc2c([nH]c3ccccc23)[C@@H](c2c(F)cc(C(F)(F)C3CN(CCCF)C3)cc2F)N1CC(C)(C)F [Compound 146]	−96.1
C[C@@H]1Cc2c([nH]c3ccccc23)[C@@H](c2c(F)cc([C@H](O)C3CN(CCCF)C3)cc2F)N1CC(C)(C)F [Compound 111]	−95.97
C[C@@H]1Cc2c([nH]c3ccccc23)[C@@H](c2c(F)cc([C@@H](O)C3CN(CCCF)C3)cc2F)N1CC(F)(F)CO (single isomer, unassigned) [Compound 135]	−99.46
C[C@@H]1Cc2c([nH]c3ccccc23)[C@@H](c2ccc([C@H](F)C3CN(CCCF)C3)cc2F)N1CC(F)(F)CO [Compound 125]	−98.52

Continue with the next compound.
Entry under test: C[C@@H]1Cc2c([nH]c3ccccc23)[C@@H](c2c(F)cc(C(O)C3CN(CCCF)C3)cc2F)N1CC(F)(F)F (stereo partly drawn) [Compound 109] . Its ER-alpha MCF7 HCS (S inf) was −98.1

Where these numbers come from: patent US20170362228A1
